# EC50 of Phagocytosis assay, IgG1, Kappa; MCF-7 listing for each entry below
Target: T1, human CD24 on cells (human, UniProt P25063 27-59)
T1 chain (looked up): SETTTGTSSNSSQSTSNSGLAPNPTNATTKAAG
Experiment: cell-based or functional assay
outcomeMeasure: EC50 of Phagocytosis assay, IgG1, Kappa; MCF-7 (µg/mL)

binder: 74-H4C6 (4451), IgG1, Kappa (antibody, V domains shown) VH: EVQLQQSGPELVKPGASVKISCKASGYDFTGYHMNWVKQSPEKSLEWIGEINPITSDKTFNQKFKSKATLTVDRSSSTAYMYLKSLTSEDSAVYYCARRDYGTSLDYWGQGTTLTVSS VL: DVQITQSPSYLAASPGETITIYCRASKSISKYLAWYQEKPEKTNRLLIYAGSTLHSGIPSRFRGSGSGKDFTLTVSGLEPEDFAMYYCQQHNEYPITFGAGTKLELK
valueMeasured: 0.28

binder: 62-F7E9, IgG1, Kappa (antibody, V domains shown) VH: QVQLQQPGAELVKPGASVKLSCKASGYTSTSYWLHWVKQRPGRGLEWIGRIDPNSGETKFNEKFKSQATLTVDKPSSTAYMQLNSLTSEDSAVYYCALYYYGSILFDYWGQGTTLTVSS VL: ENVLTQSPAIMSASPGEKVTMTCRTSSIISSGFLHWYQQKSGASPKLWIYSTSNLASGVPARFSGSGSGTSYSLTISSVEAEDAATYYCQQYSGHPLTFGAGTKLELK
valueMeasured: 2.08

binder: 79-E3H3, IgG1, Kappa (antibody, V domains shown) VH: EVQLQQSGPELVKPGASVKISCKASGYEFTGYHMNWVKQSPEKSLEWIGEINPITSDKTFNQKFKAKATLTVDRSSSTAYMHLKSLTSEDSAVYYCARRDYDTSLDYWGQGTTLTVSS VL: DVQITQSPSYLAASPGETITIYCRASKSISKYLAWYQEKPEKTNRLLIYAGSTLQSGIPSRFRGSGSGKDFTLTVSGLEPEDFAMYYCQQHNEYPLTFGAGTKLELK
valueMeasured: 0.52

binder: 63-B10B9, IgG1, Kappa (antibody, V domains shown) VH: EVQLQQSGPELVKPGASVKISCKASGYSFTGYYMNWVKQSPEKSLEWIGEINPITGGTTYNQKFRAKATLTVDRSSSTAYMQLKSLTSEDSAVYYCTKRDYDTSLDYWGQGTTLIVSS VL: DVQITQSPSYLAAFPGETITINCRASKSIKKYLAWYQEKPGKTNNLLIYSGSTLQSGIPSRFSGSGTGTDFTLTISSLEPEDFAMYYCQQHNEYPLTFGAGTKLELK
valueMeasured: 1.06

binder: 85-D5A10 (4434), IgG1, Kappa (antibody, V domains shown) VH: EVQLQQSGPELVKPGASVKISCKASGYEFTGYHMNWVKQSPEKSLEWIGEINPITSDKTFNQKFKAKATLTVDRSSSTAYMHLKSLTSDDSAVYYCARRDYGTSLDYWGQGTTLTVSS VL: DVQITQSPSYLAASPGETITIYCRASKSISKYLAWYQEKPEKTIRLLIYAGSTLQSGIPSRFRGSGSGKDFTLTVSGLEPEDFAMYYCQQHNEYPITFGAGTKLELI
valueMeasured: 0.42

binder: 67-H2E7, IgG1, Kappa (antibody, V domains shown) VH: EVQLQQSGPELVKPGASVKISCKASGYEFTGYHMNWVKQSPEKSLEWIGEINPITSDKTFNQKFKAKATLTVDRSSTTAYMHLKSLTSEDSAVYYCARRDYDTSLDYWGQGTTLTVSS VL: DVQITQSPSYLAASPGETITIYCRASKSISKYLAWYQEKPEKTNRLLIYAGSTLQSGIPSRFRGSGSGKDFTLTVSGLEPEDFAMYYCQQHNEYPLTFGAGTKLDLK
valueMeasured: 0.45

binder: 45-H1E4, IgG1, Kappa (antibody, V domains shown) VH: QIQLVQSGPELKKPGETVKISCKASGYTFTTYGMSWMKQAPGKGLKWMGWINTYSGVPAYADDFKGRFAFSLDTSASTAYLQINNLKNEDTATYFCARSGYPWSPHSYSTDYWGQGISVTVSS VL: DVLLTQTPLSLPVSLGDQASISCKSSQSIVHSNGNTYLEWYLQKPGQSPKRLIYKVSNRFSGVPDRFSGSGSGTDFTLKISRVEAEDLGVYYCFQGSHVPWTFGGGTKLEIK
valueMeasured: 1.02

binder: 90-D11B6, IgG1, Kappa (antibody, V domains shown) VH: EVQLQQSGPELVKPGASVRISCKASGYSFTGYYMNWVKQSPEKNLEWIGEINPITGGSTYNQKFVAKATLTVDRSSSTAYMQLKSLTSEDSAVYYCTRRDYDTSLDYWGQGTTLTVSS VL: DVQITQSPSYLAASPGETITINCRASKSISKYLAWYQEKPGKTIKLLIYAGSTLQSGIPSRFSGSGYGTDFTLTISSLEPEDFAMYYCQQHNEYPLTFGAGTKLELK
valueMeasured: 1

Data credit: patent US20260265403A1
